In this section, each of the compounds is paired with its reported GI50.
Test system: HCT-15 colon
Protocol description: NCI tumour cell line growth inhibition, 48 h
Experimental endpoint: GI50

>>> assay_result("O=C(O)c1ccc(-c2ccc(C(=O)O)cc2I)c(I)c1")
"> 100000 nM"
>>> assay_result("CS(=O)c1ccc(-c2nc(-c3ccc(F)cc3)c(-c3ccncc3)[nH]2)cc1 (configuration not stated)")
"30200 nM"
>>> assay_result("O=C(c1ccco1)c1c(C(F)(F)F)nc2cc(C(F)(F)F)ccc2[n+]1[O-]")
"> 100000 nM"
>>> assay_result("N=C(N)c1ccc(-c2ccc(-c3ccc(Cl)cn3)s2)cc1")
"1610 nM"
>>> assay_result("BrC(Br)(Br)c1cnc2ccccc2n1")
"2030 nM"
>>> assay_result("CC(F)(F)c1cc(F)ccc1-c1sc2cc(O)ccc2c1Oc1ccc(/C=C/C(=O)O)cc1")
"4130 nM"
>>> assay_result("CC1CCC2C(C)C3C(CC4C5CC=C6CC(OC7OC(CO)C(O)C(OC8OC(CO)C(O)C(O)C8O)C7OC7OC(C)C(O)C(O)C7O)CCC6(C)C5CCC43C)N2C1 (configuration not stated)")
"> 2.5 µg/mL"
>>> assay_result("Oc1ccc(/C=N/Nc2nc3ccccc3s2)c(O)c1")
"734 nM"
>>> assay_result("Cc1c2ncccc2nc2[nH]c3ccc(OCCN(C)C)cc3c12")
"1330 nM"
>>> assay_result("COc1ccccc1CNC(=O)C1c2ccccc2C(=O)N(CC(C)C)C1c1cccs1 (configuration not stated)")
"20800 nM"
>>> assay_result("C[C@H]1CCC/C=C/[C@@H]2C[C@H](O)C[C@H]2[C@H](O)[C@@H](S(=O)CCN)CC(=O)O1 (some centres not stated)")
"280 nM"
>>> assay_result("CCN(CC)CCCCCOc1cc(O)c2c(=O)cc(-c3ccccc3)oc2c1")
"1580 nM"
>>> assay_result("CCOC(=O)c1c(C)n(CC(C)C)c2c1cc1oc(=O)c(=O)n3cnc2c13")
"15200 nM"
>>> assay_result("O=C(NCCCNC(=O)OCc1ccc2c(Br)cc(Br)c(O)c2n1)OCc1ccc2c(Br)cc(Br)c(O)c2n1")
"> 100000 nM"
>>> assay_result("COc1cc(C2CC(c3ccc4c(c3)OCO4)=NN2C(C)=O)cc(OC)c1OC (configuration not stated)")
"584 nM"
>>> assay_result("CCOC(=O)c1cc2cc(NC(=O)c3cc4cc([N+](=O)[O-])ccc4n3C)ccc2n1C")
"15400 nM"
>>> assay_result("COc1ccc2[nH]c(-c3cccc(N(C)C)c3)cc(=O)c2c1")
"374 nM"
